All values here come from paper PMC7252619.

# target_under_test: DAPK1 (Homo sapiens)
# Construct: purchased ReactionBiology
# assay_text: Kinase activity test (ReactionBiology), % enzyme activity relative to DMSO
# Format: biochemical
# experimental_conditions: DAPK1; 10 uM; replicate Data 1; read-out: % Enzyme Activity (relative to DMSO controls), Data 1
property: remaining activity at 10 µM (%)
One number for each entry, in %.

// for each compound below, give its remaining activity at 10 µM
1. NCCCCCC(=O)O
2. CC(C)c1nc(CN(C)C(=O)N[C@H](C(=O)N[C@@H](Cc2ccccc2)C[C@H](O)[C@H](Cc2ccccc2)NC(=O)OCc2cncs2)C(C)C)cs1 [Ritonavir, reference compound]
3. CN(C)CCOc1ccc(/C(=C(/CCCl)c2ccccc2)c2ccccc2)cc1 [Toremifene, reference compound]
4. CC(C)(C)NC(=O)[C@@H]1C[C@@H]2CCCC[C@@H]2CN1C[C@@H](O)[C@H](Cc1ccccc1)NC(=O)[C@H](CC(N)=O)NC(=O)c1ccc2ccccc2n1 [Saquinavir, reference compound]

Response:
1: 109; 2: 39.2; 3: 14.9; 4: 27.8

###

# target_under_test: EPHB4 (Homo sapiens)
# Construct: purchased ReactionBiology
# Sequence (P54760 16-987): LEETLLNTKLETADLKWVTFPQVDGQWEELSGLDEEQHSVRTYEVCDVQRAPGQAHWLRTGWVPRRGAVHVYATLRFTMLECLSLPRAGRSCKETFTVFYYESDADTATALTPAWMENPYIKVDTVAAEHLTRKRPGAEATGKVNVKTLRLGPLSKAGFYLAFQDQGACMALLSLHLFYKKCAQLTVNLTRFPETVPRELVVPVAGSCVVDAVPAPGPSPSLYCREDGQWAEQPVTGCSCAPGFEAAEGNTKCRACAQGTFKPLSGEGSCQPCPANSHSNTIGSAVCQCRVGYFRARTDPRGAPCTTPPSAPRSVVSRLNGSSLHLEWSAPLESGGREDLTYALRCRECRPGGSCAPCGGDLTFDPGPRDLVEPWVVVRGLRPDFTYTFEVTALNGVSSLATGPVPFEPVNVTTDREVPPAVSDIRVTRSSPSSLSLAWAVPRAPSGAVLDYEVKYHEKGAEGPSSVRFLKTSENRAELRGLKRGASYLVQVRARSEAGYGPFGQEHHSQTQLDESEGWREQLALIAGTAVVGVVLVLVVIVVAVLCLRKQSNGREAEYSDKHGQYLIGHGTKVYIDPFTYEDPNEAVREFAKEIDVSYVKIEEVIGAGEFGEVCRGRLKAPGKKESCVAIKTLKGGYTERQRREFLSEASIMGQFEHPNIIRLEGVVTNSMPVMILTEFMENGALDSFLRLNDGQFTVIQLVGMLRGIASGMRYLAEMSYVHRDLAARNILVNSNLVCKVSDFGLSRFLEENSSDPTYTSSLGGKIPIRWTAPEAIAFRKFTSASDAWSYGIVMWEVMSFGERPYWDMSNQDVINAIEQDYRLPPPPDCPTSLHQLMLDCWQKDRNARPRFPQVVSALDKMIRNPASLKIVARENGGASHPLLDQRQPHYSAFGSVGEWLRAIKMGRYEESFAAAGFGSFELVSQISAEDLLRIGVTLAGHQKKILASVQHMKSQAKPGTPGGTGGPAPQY
# assay_text: Kinase activity test (ReactionBiology), % enzyme activity relative to DMSO
# Format: biochemical
# experimental_conditions: EPHB4; 10 uM; replicate Data 2
property: % Enzyme Activity (relative to DMSO controls), Data 2 (%)
Numbers only, in %.

C[C@]12CCC(=O)C=C1CC[C@@H]1[C@@H]2[C@@H](O)C[C@@]2(C)[C@H]1CC[C@]2(O)C(=O)CO [Hydrocortisone]	91.51
O=C1c2cccc3c2[C@H](CCC3)CN1[C@@H]1CN2CCC1CC2	89.88
CCCCC1C(=O)N(c2ccccc2)N(c2ccccc2)C1=O	94.61
COc1ccc2c3c1O[C@H]1C[C@@H](O)C=C[C@@]31CCN(C)C2	93.68

I would be grateful if you could provide % Enzyme Activity (relative to DMSO controls), Data 2 for each of the following entries.
1. CS(=O)(=O)c1ccc(C2=C(c3ccccc3)C(=O)OC2)cc1
2. C[C@H]1O[C@@H](O[C@H]2[C@@H](O)C[C@H](O[C@H]3[C@@H](O)C[C@H](O[C@H]4CC[C@@]5(C)[C@H](CC[C@@H]6[C@@H]5C[C@@H](O)[C@]5(C)[C@@H](C7=CC(=O)OC7)CC[C@]65O)C4)O[C@@H]3C)O[C@@H]2C)C[C@H](O)[C@@H]1O
3. COc1cc2c(c(OC)c1OC)-c1ccc(OC)c(=O)cc1[C@@H](NC(C)=O)CC2
4. C/C(O)=C(\C#N)C(=O)Nc1ccc(C(F)(F)F)cc1 [Teriflunomide]

Response:
1: 86.63; 2: 93.96; 3: 99.11; 4: 93.04

###

# target_under_test: CK1d (Homo sapiens)
# Construct: purchased ReactionBiology
# assay_text: Kinase activity test (ReactionBiology), % enzyme activity relative to DMSO
# Type: biochemical
# experimental_conditions: CK1d; 10 uM; replicate Data 1
property: % Enzyme Activity (relative to DMSO controls), Data 1 (%)
Give bare numbers, in %.

C[C@H]1O[C@@H](O[C@H]2[C@@H](O)C[C@H](O[C@H]3[C@@H](O)C[C@H](O[C@H]4CC[C@@]5(C)[C@H](CC[C@@H]6[C@@H]5C[C@@H](O)[C@]5(C)[C@@H](C7=CC(=O)OC7)CC[C@]65O)C4)O[C@@H]3C)O[C@@H]2C)C[C@H](O)[C@@H]1O	102.31
CO[C@@]12[C@H](COC(N)=O)C3=C(C(=O)C(C)=C(N)C3=O)N1C[C@@H]1N[C@@H]12	209.38
O=C(O)c1cc(-c2ccc(F)cc2F)ccc1O	104.76
CN[C@H]1CC[C@@H](c2ccc(Cl)c(Cl)c2)c2ccccc21	106.22
CCc1nc(N)nc(N)c1-c1ccc(Cl)cc1	85.89
O=c1[nH]cc(F)c(=O)[nH]1	110.21
CC1=Nc2ccc(Cl)cc2S(=O)(=O)N1 [Diazoxide]	96.56

Now turn to the next compound.
Request: // lookup % Enzyme Activity (relative to DMSO controls), Data 1 for CCCCC[C@H](O)/C=C/[C@H]1[C@H](O)CC(=O)[C@@H]1CCCCCCC(=O)O
Response: 108.06

###

# target_under_test: NEK2 (Homo sapiens)
# Construct: purchased ReactionBiology
# Sequence (P51955 whole entry): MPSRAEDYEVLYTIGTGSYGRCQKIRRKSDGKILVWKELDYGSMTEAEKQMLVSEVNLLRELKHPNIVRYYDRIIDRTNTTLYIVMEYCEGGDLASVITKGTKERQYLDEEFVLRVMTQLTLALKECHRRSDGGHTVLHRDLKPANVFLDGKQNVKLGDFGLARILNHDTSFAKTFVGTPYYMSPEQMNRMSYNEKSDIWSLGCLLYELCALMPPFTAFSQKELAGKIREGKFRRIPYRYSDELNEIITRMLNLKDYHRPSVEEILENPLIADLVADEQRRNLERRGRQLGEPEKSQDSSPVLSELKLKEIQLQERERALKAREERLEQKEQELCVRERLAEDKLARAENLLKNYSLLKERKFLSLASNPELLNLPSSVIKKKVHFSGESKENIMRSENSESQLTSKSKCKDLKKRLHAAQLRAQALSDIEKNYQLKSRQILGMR
# assay_text: Kinase activity test (ReactionBiology), % enzyme activity relative to DMSO
# Assay type: biochemical
# experimental_conditions: NEK2; 1 uM; Average; read-out: % Enzyme Activity (relative to DMSO controls), Average
Please respond with reported remaining activity at 1 µM for every item in the list.

Please review the following examples before continuing.
Nc1ncnc2c1ncn2[C@@H]1O[C@H](CO)[C@@H](O)[C@H]1O [Adenosine, reference compound]	79.9%
C[C@]12CC[C@@H]3c4ccc(O)cc4CC[C@H]3[C@@H]1CC[C@@H]2O [Estradiol, reference compound]	92.1%
CC/C(=C(/CC)c1ccc(O)cc1)c1ccc(O)cc1 [Diethylstilbestrol, reference compound]	97.9%

Here is the next item to consider.
Request: Please give the measured remaining activity at 1 µM for this compound: NC[C@H]1CC[C@H](C(=O)O)CC1 [Tranexamic acid]
Response: 72.5%

###

# target_under_test: NEK2 (Homo sapiens)
# Construct: purchased ReactionBiology
# assay_text: Kinase activity test (ReactionBiology), % enzyme activity relative to DMSO
# Type: biochemical
# experimental_conditions: NEK2; 10 uM; replicate Data 2
property: % Enzyme Activity (relative to DMSO controls), Data 2
Answer by giving the amount and then stating its unit.

Would you please look over these solved cases?
CCc1nc(N)nc(N)c1-c1ccc(Cl)cc1 [Pyrimethamine]	103.08%
Cc1nc(=O)c2cc(CN(C)c3ccc(C(=O)N[C@@H](CCC(=O)O)C(=O)O)s3)ccc2[nH]1 [Raltitrexed]	90.43%
Nc1nc2c(ncn2COCCO)c(=O)[nH]1 [Acyclovir]	99.86%
N[C@H]1C(O)O[C@H](CO)[C@@H](O)[C@@H]1O (stereo partly drawn) [Glucosamine]	100.69%
Nc1nc2[nH]cnc2c(=S)[nH]1 [Thioguanine]	105.26%
Cc1nnc(C(C)C)n1C1C[C@H]2CC[C@@H](C1)N2CC[C@H](NC(=O)C1CCC(F)(F)CC1)c1ccccc1 (stereo in doubt) [Maraviroc]	101.67%

Below are some molecules; for each one, tell me its % Enzyme Activity (relative to DMSO controls), Data 2.
1. O=C(O)c1cc(-c2ccc(F)cc2F)ccc1O [Diflunisal]
2. CC(=O)CCCCn1c(=O)c2c(ncn2C)n(C)c1=O [Pentoxifylline]
3. C[C@H](O)[C@H](O)[C@H]1CNc2nc(N)[nH]c(=O)c2N1 [Sapropterin]

Response:
105.46%
89.78%
94.64%

###

# target_under_test: CK1d (Homo sapiens, UniProt P48730)
# Construct: purchased ReactionBiology
# Sequence (P48730 whole entry): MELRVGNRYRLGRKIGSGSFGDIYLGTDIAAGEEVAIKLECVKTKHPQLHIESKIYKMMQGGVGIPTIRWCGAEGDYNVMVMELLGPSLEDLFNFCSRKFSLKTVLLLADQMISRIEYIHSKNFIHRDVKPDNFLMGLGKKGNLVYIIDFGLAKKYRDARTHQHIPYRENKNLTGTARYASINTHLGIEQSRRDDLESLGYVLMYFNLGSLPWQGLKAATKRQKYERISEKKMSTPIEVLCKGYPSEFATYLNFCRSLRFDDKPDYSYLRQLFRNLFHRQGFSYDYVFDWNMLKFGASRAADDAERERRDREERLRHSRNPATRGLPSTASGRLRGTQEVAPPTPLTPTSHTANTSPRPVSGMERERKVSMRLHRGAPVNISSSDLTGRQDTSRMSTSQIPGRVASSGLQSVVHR
# assay_text: Kinase activity test (ReactionBiology), % enzyme activity relative to DMSO
# Format: biochemical
# experimental_conditions: CK1d; 10 uM; Average
Please provide measured % Enzyme Activity (relative to DMSO controls), Average for the entries that follow.
Answers are plain numbers, in %.

// below: answered molecules
O=C(O)c1cc(-c2ccc(F)cc2F)ccc1O [Diflunisal]	105.59
Fc1ccc([C@@H]2CCNC[C@H]2COc2ccc3c(c2)OCO3)cc1 [Paroxetine]	105.10
CCCCC[C@H](O)/C=C/[C@H]1[C@H](O)CC(=O)[C@@H]1CCCCCCC(=O)O [Alprostadil]	106.64
CCc1nc(N)nc(N)c1-c1ccc(Cl)cc1 [Pyrimethamine]	84.36
CNCCCN1c2ccccc2CCc2ccccc21 [Desipramine]	133.63
COc1ccc2c(c1)c(CC(=O)O)c(C)n2C(=O)c1ccc(Cl)cc1 [Iomethacin]	95.39

// moving on: another record for % Enzyme Activity (relative to DMSO controls), Average
Request: Quick one: % Enzyme Activity (relative to DMSO controls), Average for CN[C@H]1CC[C@@H](c2ccc(Cl)c(Cl)c2)c2ccccc21 [Sertraline] ?
Response: 163.39

###

# target_under_test: DAPK1 (Homo sapiens, UniProt P53355)
# Construct: purchased ReactionBiology
# Sequence (P53355 whole entry): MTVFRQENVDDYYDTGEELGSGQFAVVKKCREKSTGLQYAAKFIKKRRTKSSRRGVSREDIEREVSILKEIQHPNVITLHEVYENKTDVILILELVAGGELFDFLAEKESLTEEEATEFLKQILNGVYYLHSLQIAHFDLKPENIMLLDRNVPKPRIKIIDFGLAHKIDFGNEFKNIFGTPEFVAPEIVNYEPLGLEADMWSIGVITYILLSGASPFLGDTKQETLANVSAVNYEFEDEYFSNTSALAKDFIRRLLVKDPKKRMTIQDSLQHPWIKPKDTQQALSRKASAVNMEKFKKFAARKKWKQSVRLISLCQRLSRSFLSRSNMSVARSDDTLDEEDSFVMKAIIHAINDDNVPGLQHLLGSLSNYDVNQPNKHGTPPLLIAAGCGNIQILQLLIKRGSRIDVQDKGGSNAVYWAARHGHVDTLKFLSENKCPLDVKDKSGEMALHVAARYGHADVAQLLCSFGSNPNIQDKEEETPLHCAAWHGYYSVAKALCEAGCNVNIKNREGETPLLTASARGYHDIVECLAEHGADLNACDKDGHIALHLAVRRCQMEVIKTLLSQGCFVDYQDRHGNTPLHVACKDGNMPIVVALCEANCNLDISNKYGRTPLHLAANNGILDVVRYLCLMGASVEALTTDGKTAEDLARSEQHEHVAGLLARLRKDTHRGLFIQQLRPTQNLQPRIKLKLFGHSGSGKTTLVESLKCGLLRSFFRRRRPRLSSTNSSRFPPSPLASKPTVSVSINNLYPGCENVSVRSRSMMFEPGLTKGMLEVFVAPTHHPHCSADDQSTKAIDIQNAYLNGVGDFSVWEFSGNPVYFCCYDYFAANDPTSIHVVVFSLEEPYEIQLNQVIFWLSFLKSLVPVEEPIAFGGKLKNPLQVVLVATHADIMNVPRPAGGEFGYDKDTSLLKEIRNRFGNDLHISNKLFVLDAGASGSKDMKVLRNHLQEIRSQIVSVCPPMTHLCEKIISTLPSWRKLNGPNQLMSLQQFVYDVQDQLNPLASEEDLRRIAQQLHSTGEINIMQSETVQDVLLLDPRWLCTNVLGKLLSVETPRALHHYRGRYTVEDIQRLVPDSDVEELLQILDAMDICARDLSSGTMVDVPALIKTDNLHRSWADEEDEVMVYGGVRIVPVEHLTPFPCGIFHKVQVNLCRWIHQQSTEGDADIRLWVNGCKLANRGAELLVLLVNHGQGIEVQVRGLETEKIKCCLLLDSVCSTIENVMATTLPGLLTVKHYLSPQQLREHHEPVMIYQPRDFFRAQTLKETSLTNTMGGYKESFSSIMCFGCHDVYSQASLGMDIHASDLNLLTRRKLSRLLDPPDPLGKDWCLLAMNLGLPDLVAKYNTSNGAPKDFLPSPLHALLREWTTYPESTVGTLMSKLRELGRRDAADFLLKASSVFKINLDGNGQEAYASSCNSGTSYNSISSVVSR
# assay_text: Kinase activity test (ReactionBiology), % enzyme activity relative to DMSO
# Format: biochemical
# experimental_conditions: DAPK1; 1 uM; Average; read-out: % Enzyme Activity (relative to DMSO controls), Average
Would you kindly list remaining activity at 1 µM for each of these compounds?
Just the number plus its unit, please.

Some compounds with recorded remaining activity at 1 µM:
NC(=O)c1cccnc1 [Niacinamide, reference compound]	111%
Nc1ncnc2c1ncn2[C@@H]1O[C@H](CO)[C@@H](O)[C@H]1O [Adenosine, reference compound]	99.3%
CC(=O)O[C@H]1C[C@@]2(C)[C@@H](C[C@@H](O)[C@H]3[C@@]4(C)CC[C@@H](O)[C@@H](C)[C@@H]4CC[C@@]32C)/C1=C(\CCC=C(C)C)C(=O)O	96.4%
C[C@]12CC[C@@H]3c4ccc(O)cc4CC[C@H]3[C@@H]1CC[C@@H]2O [Estradiol, reference compound]	111%
CN(C)CCOc1ccc(/C(=C(/CCCl)c2ccccc2)c2ccccc2)cc1 [Toremifene, reference compound]	90.4%
C=CC(=O)N1CCC[C@@H](n2nc(-c3ccc(Oc4ccccc4)cc3)c3c(N)ncnc32)C1 [Ibrutinib, reference compound]	95.6%

Request: Quick one: remaining activity at 1 µM of NCCCCCC(=O)O ?
Response: 114%
